Taken from patent US20210130436A1.

Target: T1, human CTLA-4 (human, UniProt P16410 36-223)
T1 construct: also called huCTLA4
T1 sequence (P16410 36-223): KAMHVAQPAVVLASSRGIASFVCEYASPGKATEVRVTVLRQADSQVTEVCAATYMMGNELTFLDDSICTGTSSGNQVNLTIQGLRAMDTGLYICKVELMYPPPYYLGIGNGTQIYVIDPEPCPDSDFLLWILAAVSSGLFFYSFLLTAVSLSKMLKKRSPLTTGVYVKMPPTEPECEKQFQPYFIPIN
Assay: flow cytometry on CHO cells stably expressing CTLA4; vs CD80 WT IgV-Fc
readoutLabel: Fold change to WT CD80

Fold change to WT CD80 in this record for wild-type CD80 IgV-Fc (inert) with GSG4S linker, Example 16 (Fc fusion, also called CD80 WT IgV-Fc) VIHVTKEVKEVATLSCGHNVSVEELAQTRIYWQKEKKMVLTMMSGDMNIWPEYKNRTIFDITNNLSIVILALRPSDEGTYECVVLKYEKDAFKREHLAEVTLSVKADGSGGGGSEPKSSDKTHTCPPCPAPEAEGAPSVFLFPPKPKDTLMISRTPEVTCVVVDVSHEDPEVKFNWYVDGVEVHNAKTKPREEQYNSTYRVVSVLTVLHQDWLNGKEYKCKVSNKALPAPIEKTISKAKGQPREPQVYTLPPSREEMTKNQVSLTCLVKGFYPSDIAVEWESNGQPENNYKTTPPVLDSDGSFFLYSKLTVDKSRWQQGNVFSCSVMHEALHNHYTQKSLSLSPG : 1 fold
